Molecular target: hparp486 (Homo sapiens, UniProt P09874 1-486)
Sequence (P09874 1-486): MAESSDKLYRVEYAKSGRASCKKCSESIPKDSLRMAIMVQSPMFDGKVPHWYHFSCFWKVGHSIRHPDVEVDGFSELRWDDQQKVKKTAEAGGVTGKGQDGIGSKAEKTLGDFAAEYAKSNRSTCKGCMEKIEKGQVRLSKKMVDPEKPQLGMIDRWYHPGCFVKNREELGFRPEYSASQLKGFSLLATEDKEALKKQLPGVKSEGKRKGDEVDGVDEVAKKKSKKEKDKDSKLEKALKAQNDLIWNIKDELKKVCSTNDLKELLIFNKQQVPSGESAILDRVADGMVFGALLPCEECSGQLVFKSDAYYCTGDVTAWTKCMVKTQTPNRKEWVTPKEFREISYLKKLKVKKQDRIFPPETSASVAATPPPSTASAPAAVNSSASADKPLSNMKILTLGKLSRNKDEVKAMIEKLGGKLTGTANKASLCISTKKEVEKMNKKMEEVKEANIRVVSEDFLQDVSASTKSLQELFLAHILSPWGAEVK
Assay: fluorescence quenching
Measured Quantity: pKd
Just so you know, pKd here is -log10 of the concentration in molar units; reply with that number alone.

Record 30Ext (pos. A) (dsDNA) DNA 1: ATCAGATAGCATCTGTGCGGCCGCTTAGGGTTAGGG DNA 2: CCCTAAGCGGCCGCACAGATGCTATCTGAT , field pKd: 7.17
